Reference source for all entries: ChEMBL document CHEMBL5316362

assay: Inhibition of Almond beta-glucosidase; set-up: species or system Prunus dulcis
pIC50: −log10 of the molar value.
Quantity name: pIC50

Worked examples follow.
OC[C@H]1N[C@H]([C@H](O)CCCCCC[C@H](O)[C@@H](O)Cc2ccc(O)cc2)[C@@H](O)[C@@H]1O	6.04
OC[C@H]1N[C@H]([C@H](O)C(O)CCCCCCC(O)C(O)c2ccccc2)[C@@H](O[C@@H]2O[C@H](CO)[C@@H](O)[C@H](O)[C@H]2O)[C@H]1O (stereo not given in full)	4.17

[a] OC[C@H]1N[C@H]([C@H](O)C(O)CCCCCC(O)C(O)C(O)c2ccccc2)[C@@H](O[C@@H]2O[C@H](CO)[C@@H](O)[C@H](O)[C@H]2O)[C@H]1O (stereo not given in full)
[b] CCCCCCCC[C@H]1N[C@H](CO)[C@@H](O)[C@H](O)[C@H]1O
[c] OC[C@H]1N[C@H](CO)[C@@H](O)[C@H]1O
Ask | Kindly order the items shown according to pIC50, from the highest value down. Response format: the labels, sorted as the prompt asks.
Reply | a, c, b

* * *

assay: Inhibition of bovine liver beta-galactosidase; format: tissue-based, Bos taurus
Quantity name: IC50 (µM)

[a] O=C(O)C(F)(F)F.OC[C@H]1N[C@H](CCCCCCCCCc2ccc(O)cc2)[C@H](O)[C@@H](O)[C@@H]1O
[b] CCCCCCCC[C@H]1N[C@H](CO)[C@@H](O)[C@H](O)[C@H]1O
Ask | Look at a and b . Which one has the lower recorded IC50 number? Choose, then provide that item's label.
Reply | a
(a: 4.1 µM, b: 52 µM)

* * *

assay: Inhibition of Almond beta-glucosidase using p-nitrophenyl glycoside as substrate preincubated for 5 mins followed by substrate addition and measured after 15 mins by spectrometry analysis; parameters: species or system Prunus dulcis
Quantity name: IC50 (nM)
Hi! Could you send only the number? It should be in nM, unit omitted.

Noted for OC[C@H]1N[C@H](CCCCCCC(O)C(O)Cc2ccc(O)cc2)[C@H](O)[C@@H](O)[C@@H]1O (stereo partly specified) : its IC50 reads 150

* * *

experiment: Inhibition of human lysosomal alpha-galactosidase; format: subcellular, Lysosome
Quantity name: pIC50
The quantity pIC50 is defined as the negative base-10 logarithm of the molar concentration.

Noted for CCCCCCCC[C@H]1N[C@H](CO)[C@@H](O)[C@H](O)[C@H]1O : its pIC50 reads 4.89

* * *

target: Lysosomal alpha-glucosidase (Homo sapiens); assay: Inhibition of human lysosomal alpha-glucosidase
Quantity name: IC50 (nM)

[I] CCCCCCCC[C@H]1N[C@H](CO)[C@@H](O)[C@H](O)[C@H]1O
[II] O=C(O)C(F)(F)F.OC[C@H]1N[C@H](CCCCCCCCCc2ccc(O)cc2)[C@H](O)[C@@H](O)[C@@H]1O
Ask | Form field 'greater IC50' accepts I or II ; which applies? Choose, then provide that item's label.
Reply | I

* * *

molecular target: Alpha-galactosidase (Coffea arabica, UniProt Q42656)
Sequence (Q42656 whole entry): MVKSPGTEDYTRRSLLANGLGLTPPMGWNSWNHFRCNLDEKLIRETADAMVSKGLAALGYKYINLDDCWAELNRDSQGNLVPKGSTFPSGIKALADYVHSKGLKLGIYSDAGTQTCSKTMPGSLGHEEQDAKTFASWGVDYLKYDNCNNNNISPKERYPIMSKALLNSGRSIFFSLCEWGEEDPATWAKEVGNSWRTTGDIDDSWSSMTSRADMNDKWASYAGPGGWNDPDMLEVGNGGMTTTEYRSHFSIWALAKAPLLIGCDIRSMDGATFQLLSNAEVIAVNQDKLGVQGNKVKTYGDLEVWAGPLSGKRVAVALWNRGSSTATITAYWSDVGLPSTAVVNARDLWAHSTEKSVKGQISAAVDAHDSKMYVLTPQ
Quantity name: IC50 (µM)

[I] OCCCCCC/C=C\C[C@H](O)[C@@H](O)[C@H]1N[C@H](CO)[C@H](O)[C@@H]1O[C@@H]1O[C@H](CO)[C@@H](O)[C@H](O)[C@H]1O
[II] CCCCCCCC[C@H]1N[C@H](CO)[C@@H](O)[C@H](O)[C@H]1O
[III] O=C(O)C(F)(F)F.OC[C@H]1N[C@H](CCCCCCCCCc2ccc(O)cc2)[C@H](O)[C@@H](O)[C@@H]1O
Ask | List items by IC50 in falling order. Response format: the labels, sorted as the prompt asks.
Reply | III, I, II
